property: melting point

O=C(O)c1ccc(COCc2csc3nc(C(=O)NCc4cccc(Br)c4)[nH]c(=O)c23)cc1
231 to 233 °C
Cc1cc(C2=NNC(C)(C#N)Cc3cc4c(cc32)OCO4)ccc1[N+](=O)[O-] (stereo not given)
148 to 151 °C
O=C1COC(=O)C(Cc2ccccc2)O1 (stereo not given)
64 to 65 °C
O=C1CCC(N2C(=O)c3cccc(OCc4ccc5ccccc5n4)c3C2=O)C(=O)N1 (stereo not given)
254 to 256 °C

Exercise: I would be grateful if you could share the reported melting point for `CCc1ccc(NCc2ccc(N(C)C)cc2)cc1` .
Key: 64 to 66 °C
